# target-of-assay: T1, hRGMa-His (human, UniProt Q96B86 48-422, limits assumed)
# T1 construct: also called human RGMa (BIAcore); not shown: His tag
# T1 sequence: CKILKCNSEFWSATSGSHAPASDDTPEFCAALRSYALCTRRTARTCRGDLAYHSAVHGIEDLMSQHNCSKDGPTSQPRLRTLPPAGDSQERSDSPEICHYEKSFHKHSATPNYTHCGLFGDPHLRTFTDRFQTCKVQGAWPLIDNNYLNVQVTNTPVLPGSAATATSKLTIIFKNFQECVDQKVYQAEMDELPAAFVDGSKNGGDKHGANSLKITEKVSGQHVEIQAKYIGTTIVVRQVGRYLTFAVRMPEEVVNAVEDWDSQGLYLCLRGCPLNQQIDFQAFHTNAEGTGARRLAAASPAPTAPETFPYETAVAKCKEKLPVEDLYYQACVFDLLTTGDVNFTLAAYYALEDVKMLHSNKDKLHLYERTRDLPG
# assay-overview: BIAcore
measured-attribute: kon (M⁻¹ s⁻¹)
Give the number; M⁻¹ s⁻¹ is assumed, so skip it.

I would be grateful if you could share the reported kon for AE12-1-F (antibody, V domains shown, AE12-1 variant, Cys of VL CDR-L3 replaced; IgG) VH: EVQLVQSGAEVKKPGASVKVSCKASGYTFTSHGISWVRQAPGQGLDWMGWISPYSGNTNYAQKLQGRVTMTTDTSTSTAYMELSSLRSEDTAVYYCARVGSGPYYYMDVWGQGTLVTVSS VL: QSALTQPRSVSGSPGQSVTISCTGTSSSVGDSIYVSWYQQHPGKAPKLMLYDVTKRPSGVPDRFSGSKSGNTASLTISGLQAEDEADYYCFSYAGTDTLFGGGTKVTVL .
27000
